Assay: Caco-2 Permeability Assay
Assay type: in vitro ADME, human
Conditions: human, Caco-2, pH 7.4, Caco-2 monolayer
endpoint_name: Papp at 90 min, 10 µM (×10⁻⁶ cm/s)
Numeric only. Scale: ×10⁻⁶ cm/s

Lookup: Quick one: Papp at 90 min, 10 µM of `CC(C)OCCn1c(=S)[nH]c(=O)c2c1ccn2COC(=O)CCNC(=O)[C@@H](NC(=O)OC(C)(C)C)[C@@H](C)O.O=C(O)C(F)(F)F` ?
Found: 0.835

Lookup: Quick one: Papp at 90 min, 10 µM of `CC(C)OCCn1c(=S)[nH]c(=O)c2c1ccn2COC(=O)CCCCNC(=O)[C@@H]1CCC(=O)N1C.O=C(O)C(F)(F)F` ?
Found: 0.2

Lookup: Quick one: Papp at 90 min, 10 µM of `CC(C)OCCn1c(=S)[nH]c(=O)c2c1ccn2COC(=O)CCNC(=O)[C@H](Cc1ccc(O)cc1)NC(=O)OC(C)(C)C.O=C(O)C(F)(F)F` ?
Found: 1.12

Next:
Lookup: Quick one: Papp at 90 min, 10 µM of `CC(C)OCCn1c(=S)[nH]c(=O)c2c1ccn2COC(=O)C1CN(C(=O)OC(C)(C)C)C1` ?
Found: 7.79

Lookup: Quick one: Papp at 90 min, 10 µM of `CC(C)OCCn1c(=S)[nH]c(=O)c2c1ccn2COC(=O)CCCCNC(=O)CN(C)C(=O)CNC(=O)OC(C)(C)C.O=C(O)C(F)(F)F` ?
Found: 0.28

Data provenance: patent US20240067651A1
